target: human α1B‐adrenoceptor (Homo sapiens, UniProt P35368); construct: expressed in transfected cells; host or cells: CHO-K1; test: ERK1/2‐phosphorylation (Surefire Alphascreen), CHO‐α1B cells; format: cell-based
Sequence (P35368 whole entry): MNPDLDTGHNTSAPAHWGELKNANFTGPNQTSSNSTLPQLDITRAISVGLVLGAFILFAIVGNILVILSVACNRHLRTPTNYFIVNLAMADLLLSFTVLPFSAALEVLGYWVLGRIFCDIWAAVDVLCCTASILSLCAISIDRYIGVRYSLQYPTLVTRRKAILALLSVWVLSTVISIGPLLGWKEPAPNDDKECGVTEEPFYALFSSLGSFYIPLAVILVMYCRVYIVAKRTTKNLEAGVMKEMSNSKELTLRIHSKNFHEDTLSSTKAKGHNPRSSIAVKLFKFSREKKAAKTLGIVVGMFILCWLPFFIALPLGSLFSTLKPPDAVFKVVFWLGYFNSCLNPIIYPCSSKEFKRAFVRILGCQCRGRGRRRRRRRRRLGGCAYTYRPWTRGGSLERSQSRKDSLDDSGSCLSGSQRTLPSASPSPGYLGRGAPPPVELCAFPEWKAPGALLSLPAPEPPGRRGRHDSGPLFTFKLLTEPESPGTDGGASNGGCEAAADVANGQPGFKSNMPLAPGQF
Please mark Met if the recorded ERK1/2‐phosphorylation % PDBu is equal to or greater than 40%, and Not met if it falls below.

compound	measurementTarget	category
C=CCc1ccccc1OC(C)C1=NCCN1 (stereo not shown)	human α1B‐adrenoceptor (Homo sapiens, UniProt P35368)	Met

Is the recorded value of ERK1/2‐phosphorylation % PDBu equal to or greater than 40% for this compound? Cc1cccc([C@H](C)c2cnc[nH]2)c1C
Met

Is the recorded value of ERK1/2‐phosphorylation % PDBu equal to or greater than 40% for this compound? CNCC(O)c1ccc(O)cc1 (stereo not shown) [Synephrine]
Met

Is the recorded value of ERK1/2‐phosphorylation % PDBu equal to or greater than 40% for this compound? Brc1c(NC2=NCCN2)ccc2nccnc12 [UK14304]
Not met

----------
target: human α1B‐adrenoceptor (Homo sapiens, UniProt P35368); construct: expressed in transfected cells; host or cells: CHO-K1; experiment: Intracellular free calcium mobilization, CHO‐α1B cells; format: cell-based; details: CHO‐α1B cells; intrinsic efficacy ratio, KD from binding / EC50 calcium, log
Quick list: Log efficacy ratio KD /EC50 per entry.
Just the number.

smilesRecord	readoutLabel	reportedResult
c1ccc2c(CC3=NCCN3)cccc2c1	Log efficacy ratio KD /EC50	2.29

Here is another compound to look at.
For record c1ccc(C2CC2)c(OCC2=NCCN2)c1 the listed Log efficacy ratio KD /EC50 is 2.95

----------
target: human α1B‐adrenoceptor (Homo sapiens, UniProt P35368); construct: expressed in transfected cells; host or cells: CHO-K1; experiment: Intracellular free calcium mobilization, CHO‐α1B cells; type: cell-based; conditions: CHO‐α1B cells; given as log EC50 (negative numbers)
readoutLabel: Intracellular calcium release Log EC50

The examples below pair each entry with its known result.
molecule	Intracellular calcium release Log EC50
CCc1cccc(CC)c1NC1=NCCN1 [ST‐91]	−8.13 ± 0.17
CS(=O)(=O)Nc1c(O)ccc2c1CCCC2C1=NCCN1 (stereo not drawn) [A61603]	−6.52 ± 0.08
Cc1sc(C)c2c1CCC=C2c1cnc[nH]1.O=C(O)/C=C\C(=O)O [T‐CG 1000]	No response
O=C1Nc2ccccc2C2=NC(CN3CCN(c4ccccc4)CC3)CN12 (stereo not drawn) [2‐PMDQ]	No response
C[C@](N)(Cc1ccc(O)c(O)c1)C(=O)O [Methyldopa]	No response

Here is another molecule to look at.
For record CC(C)(C)NCC(O)COc1cccc2[nH]c(=O)[nH]c12 (stereo not drawn) [CGP 12177] the listed Intracellular calcium release Log EC50 is No response

----------
target: human α1D‐adrenoceptor (full length) (Homo sapiens); construct: human α1D‐adrenoceptor (full length) were used; expressed in transfected cells; host or cells: CHO-K1; test: Intracellular free calcium mobilization, CHO‐α1D cells; type: cell-based
Sequence (P25100 whole entry): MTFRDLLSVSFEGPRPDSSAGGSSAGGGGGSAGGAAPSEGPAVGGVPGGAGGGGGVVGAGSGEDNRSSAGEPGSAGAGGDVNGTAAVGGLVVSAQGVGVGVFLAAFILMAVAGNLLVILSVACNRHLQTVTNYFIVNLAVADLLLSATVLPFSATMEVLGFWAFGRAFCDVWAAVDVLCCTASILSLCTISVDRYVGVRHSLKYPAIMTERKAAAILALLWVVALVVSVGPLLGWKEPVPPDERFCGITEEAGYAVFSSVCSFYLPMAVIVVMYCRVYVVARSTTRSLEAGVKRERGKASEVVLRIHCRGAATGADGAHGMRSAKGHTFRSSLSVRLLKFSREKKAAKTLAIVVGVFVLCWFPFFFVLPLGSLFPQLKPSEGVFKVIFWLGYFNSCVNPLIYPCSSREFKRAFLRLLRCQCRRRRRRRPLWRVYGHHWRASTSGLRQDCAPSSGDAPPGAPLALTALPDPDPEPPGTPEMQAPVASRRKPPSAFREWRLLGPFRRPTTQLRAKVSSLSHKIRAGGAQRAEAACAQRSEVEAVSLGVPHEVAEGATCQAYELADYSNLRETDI
Quick list: Intracellular calcium release % Ionomycin at 100 µM per entry.
# value in %; strip the unit string

molecule	reportedResult
N=C(N)N/N=C/c1c(Cl)cccc1Cl	20.2
Cc1cc(C(C)(C)C)cc(C)c1CC1=NCCN1	18.6
C1COC(NC(C2CC2)C2CC2)=N1	12.0
CN[C@@H](C)[C@H](O)c1ccccc1	2.6
Clc1cccc(Cl)c1N=C1NCCN1	8.0

For record O=C1CCC(=O)N1C[C@H]1CC[C@H]2CN(c3ncccn3)CCN2C1 [Sunepitrion] the listed Intracellular calcium release % Ionomycin at 100 µM is 2.5

For record Cc1cccc([C@H](C)c2cnc[nH]2)c1C the listed Intracellular calcium release % Ionomycin at 100 µM is 13.1

For record Cc1cccc(C(C)c2cnc[nH]2)c1C (centres unmarked) the listed Intracellular calcium release % Ionomycin at 100 µM is 11.5

For record Cc1cccc(C)c1N=C1NCCCS1 the listed Intracellular calcium release % Ionomycin at 100 µM is 3.8

For record CCC1(C2=NCCN2)Cc2ccccc2O1 (centres unmarked) the listed Intracellular calcium release % Ionomycin at 100 µM is 2.8

For record CC(CCc1ccccc1)NCC(O)c1ccc(O)c(C(N)=O)c1 (centres unmarked) the listed Intracellular calcium release % Ionomycin at 100 µM is 8.1
